Field: GI50. Provide a value for each of the molecules that follow.
- Tested on: NCI-H226
- test details: NCI tumour cell line growth inhibition, 48 h
The source made the active and inactive calls. No stated cut-off is given here; in the data, active = GI50 up to about 1.1 µM and inactive = higher.

Provide GI50 values for the following items, in order.
1. CC(C)c1ccc(/C=C(\NC(=O)c2ccccc2)c2nc3ccccc3[nH]2)cc1
2. COc1ccc(C2CC(c3ccc4ccccc4c3O)=NN2)cc1OC (stereo not given)
3. COC(=O)C(NC(=O)CNC(=O)CSc1nnc(COc2ccc(Cl)cc2)n1-c1ccccc1)C(C)C (stereo not given)
4. O=C(C(Cl)=C(N1CCCCC1)N1CCCCC1)C(Cl)Cl
5. CCOC(=O)c1c(C(F)(F)F)oc2c1ccc1nc3nonc3nc12

## Result
55.8 µM (inactive)
> 100 µM (inactive)
19.1 µM (inactive)
> 100 µM (inactive)
19.9 µM (inactive)
